Biological target: human glucagon receptor (human) (UniProt P47871)
Sequence (P47871 26-477): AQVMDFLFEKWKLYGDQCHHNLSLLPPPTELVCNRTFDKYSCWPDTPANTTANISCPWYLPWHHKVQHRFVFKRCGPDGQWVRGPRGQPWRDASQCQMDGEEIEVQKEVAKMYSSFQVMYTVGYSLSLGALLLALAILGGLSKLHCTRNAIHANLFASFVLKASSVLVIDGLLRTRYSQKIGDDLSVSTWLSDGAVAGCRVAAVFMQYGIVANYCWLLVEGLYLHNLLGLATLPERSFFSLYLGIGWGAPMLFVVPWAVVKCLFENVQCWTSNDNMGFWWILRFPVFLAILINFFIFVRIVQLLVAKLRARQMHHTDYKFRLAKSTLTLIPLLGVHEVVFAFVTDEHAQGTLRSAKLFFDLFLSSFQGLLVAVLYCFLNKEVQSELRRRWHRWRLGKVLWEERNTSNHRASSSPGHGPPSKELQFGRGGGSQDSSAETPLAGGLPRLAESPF
Experiment: cell-based or functional assay
Starred links: 1 amine or outer side, 2 acyl side, 3 side chain; linkers in the order of their positions; H or OH if unused. Non-standard residues stand in square brackets, D forms with d. Groups on a side chain read outwards from the residue. No end group written: not given here. *: point of attachment. C20 diacid = O=C(O)CCCCCCCCCCCCCCCCCCC(=O)*; C18 diacid = O=C(O)CCCCCCCCCCCCCCCCC(=O)*; γGlu = O=C(O)[C@H](CCC(=O)[*:2])N[*:1]; αMe4Pal = C[C@](N)(Cc1ccncc1)C(=O)O; 4Pal = N[C@@H](Cc1ccncc1)C(=O)O; αMeL = CC(C)C[C@](C)(N)C(=O)O; Orn = NCCC[C@H](N)C(=O)O; Dab = NCC[C@H](N)C(=O)O; AEEA = NCCOCCOCC(=O)O; Aib = CC(C)(N)C(=O)O
endpoint: Relative cAMP EC50

YXQGTFTSDXSXXLDKKAQXAFIEXLLEGGPSSGAPPPSGSEE (synthetic construct; SITE 2: note = 2-Aminoisobutyric Acid; SITE 10: note = 3-(4-Pyridyl)-L-alanine; SITE 12: note = L-ornithine; SITE 13: note = alpha-methyl-leucine; SITE 17: note = Lysine is chemically modified through conjugation of the epsilon-amino group of the Lysine side chain with (gamma-Gl)) [Example 944] :: 6.16 nM
YXQGTXTSDYSILLDKKAQXNFIEYLEEGGPSSGAPPPS (synthetic construct; SITE 2: note = 2-Aminoisobutyric Acid; SITE 6: note = alpha-methyl-2-fluoro-L-phenylalanine; SITE 17: note = Lysine is chemically modified through conjugation of the epsilon-amino group of the Lysine side chain with (gamma-Glu)2-CO-(CH2)16-CO2H; SITE 20: note = 2-Aminoisobutyric) [Example 416] :: 2.08 nM
YXQGTFTSDFSXXLDKKAQXAFIEYLLAGGPSSGAPPPSGEX (synthetic construct; SITE 2: note = 2-Aminoisobutyric Acid; SITE 12: note = L-ornithine; SITE 13: note = alpha-methyl-leucine; SITE 17: note = Lysine is chemically modified through conjugation of the epsilon-amino group of the Lysine side chain with (2-[2-(2-Amino-ethoxy)-ethoxy]-acetyl)-(gamma-Glu)) [Example 91] :: 9.13 nM
Y[Aib]QGTFTSD[4Pal]S[Dab][αMeL]LD[Orn]K([γGlu-γGlu-C18 diacid])AQ[αMe4Pal]AFIE[αMe4Pal]LLAGGPSSGAPPPEGSEE-NH2 [Example 1055] :: 1.88 nM
YXQGTXTSDXXIXLDXKAQXEFIEXLIEGGPPSXXPPPXGS (non-natural residues, C-terminal amide, acylated Lys with fatty diacid; synthetic construct; SITE 2: note = 2-Aminoisobutyric Acid; SITE 6: note = alpha-methyl-2-fluoro-L-phenylalanine; SITE 10: note = 3-(4-Pyridyl)-L-alanine; SITE 11: note = alpha-methyl-L-serine; SITE 13: note = alpha-methyl-leucine; SITE 16: note = L-ornithine; SITE 17: note = Lysine is chemically mo) [Example 1189] :: 1.59 nM
YXQGTFTSDFSXXLDKKAQXAFIEWLLEGGHSSGEPPPSGE (synthetic construct; SITE 2: note = 2-Aminoisobutyric Acid; SITE 12: note = L-ornithine; SITE 13: note = alpha-methyl-leucine; SITE 17: note = Lysine is chemically modified through conjugation of the epsilon-amino group of the Lysine side chain with (2-[2-(2-Amino-ethoxy)-ethoxy]-acetyl)-(gamma-Glu)) [Example 124] :: 2.92 nM
YXQGTFTSDFSKXLDKKAQXAFIEYLLAGGPSSGAPPPSGE (Aib, αMeL; acylated Lys; C-terminal amide; synthetic construct; SITE 2: note = 2-Aminoisobutyric Acid; SITE 13: note = alpha-methyl-leucine; SITE 17: note = Lysine is chemically modified through conjugation of the epsilon-amino group of the Lysine side chain with (2-[2-(2-Amino-ethoxy)-ethoxy]-acetyl)-(gamma-Glu)-CO-(CH2) 18-CO2H; SITE 20: n) [Example 11] :: 12.5 nM
YXQGTXTSDXSIXLDXKAQXEFIEXLIEGGPSSGAPPPSGS (non-natural residues; Lys acylated C18 diacid; C-terminal amide; synthetic construct; SITE 2: note = 2-Aminoisobutyric Acid; SITE 6: note = alpha-methyl-2-fluoro-L-phenylalanine; SITE 10: note = 3-(4-Pyridyl)-L-alanine; SITE 13: note = alpha-methyl-leucine; SITE 16: note = L-ornithine; SITE 17: note = Lysine is chemically modified through conjugation of the epsil) [Example 640] :: 9.5 nM
YXQGTFTSDXSKXLDKKAQXAFIEYLIEXGESSGAPPPSGS (synthetic construct; SITE 2: note = 2-Aminoisobutyric Acid; SITE 10: note = 3-(4-Pyridyl)-L-alanine; SITE 13: note = alpha-methyl-leucine; SITE 17: note = Lysine is chemically modified through conjugation of the epsilon-amino group of the Lysine side chain with (2-[2-(2-Amino-ethoxy)-ethoxy]-acetyl)) [Example 280] :: 8.63 nM
YXQGTFTSDFSXXLDKKAQXAFIEYLLAGGPSSGAPPPEGSEE (Aib, Orn, αMeL; acylated Lys; C-terminal amide; synthetic construct; SITE 2: note = 2-Aminoisobutyric Acid; SITE 12: note = L-ornithine; SITE 13: note = alpha-methyl-leucine; SITE 17: note = Lysine is chemically modified through conjugation of the epsilon-amino group of the Lysine side chain with (gamma-Glu)2-CO-(CH2)16-CO2H; SITE 20: note = 2-Am) [Example 1051] :: 10.3 nM
YXQGTFTSDFSQXLDKKAQXAFIEYLIEGGESSGAPPPSGS (synthetic construct; SITE 2: note = 2-Aminoisobutyric Acid; SITE 13: note = alpha-methyl-leucine; SITE 17: note = Lysine is chemically modified through conjugation of the epsilon-amino group of the Lysine side chain with (2-[2-(2-Amino-ethoxy)-ethoxy]-acetyl)-(gamma-Glu)-CO-(CH2) 16-CO2H; SITE 20: n) [Example 795] :: 1.77 nM
Y[Aib]QGTFTSDYSI[αMeL]LDKQAAK([AEEA-AEEA-γGlu-C20 diacid])QFVEWLIA[Aib]GPSSGEPPPGEG-NH2 [Example 333] :: 7.09 nM
Y[Aib]QGTFTSDFSK[αMeL]LDKKAQQAFIEYLLA[Aib]GPSSGAPPPSEG-NH2 (not fully specified (residue 17)) [Example 30] :: 5.22 nM
YXQGTFTSDXSQXLDXKAQXAFIEXLLEGGPSSGAPPPSGSEE (non-natural residues; lysine acylated γGlu-C18 diacid; C-terminal amide; synthetic construct; SITE 2: note = 2-Aminoisobutyric Acid; SITE 10: note = 3-(4-Pyridyl)-L-alanine; SITE 13: note = alpha-methyl-leucine; SITE 16: note = L-ornithine; SITE 17: note = Lysine is chemically modified through conjugation of the epsilon-amino group of the Lysine side chain with D-Glutami) [Example 1058] :: 5.8 nM
YXQGTFTSDFSKXLDKKAQXAFIEYLLAGGPSSGEPPPSSG (Aib, αMeL, acylated K, C-terminal amide; synthetic construct; SITE 2: note = 2-Aminoisobutyric Acid; SITE 13: note = alpha-methyl-leucine; SITE 17: note = Lysine is chemically modified through conjugation of the epsilon-amino group of the Lysine side chain with (2-[2-(2-Amino-ethoxy)-ethoxy]-acetyl)-(gamma-Glu)-CO-(CH2) 18-CO2H; SITE 20: n) [Example 7] :: 5.05 nM
